B1: Azoarcus group I ribozyme (parent)
chain: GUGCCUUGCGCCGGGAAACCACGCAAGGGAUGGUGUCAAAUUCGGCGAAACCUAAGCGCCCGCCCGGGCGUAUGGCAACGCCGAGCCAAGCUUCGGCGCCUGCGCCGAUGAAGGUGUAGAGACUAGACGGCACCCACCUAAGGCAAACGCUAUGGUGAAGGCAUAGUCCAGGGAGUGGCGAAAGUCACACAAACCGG

variants of: B1; experiment: reverse-splicing fitness (ratio to wild type); higher = more active; in vitro selection; Mg2+ level not given
# class assignment by measured reverse-splicing fitness: range 1: < 0.006; range 2: ≥ 0.006 and < 0.009; range 3: ≥ 0.009

Recorded results for 3 variants are shown here.
C82U A111C A120G A145C C169A U176C = range 1
C82G A111C A120U A145U C150A C169A U176A = range 1
A111C A120G A145G C169G U176A = range 3

Asked: Lab note: which band did A120G A145U C150G C169A land in?
Given back: range 3

Asked: Lab note: which band did C82U A111G A120U A145G C150A C169A land in?
Given back: range 1

Asked: Lab note: which band did C82U A120C A145U C150G U176A land in?
Given back: range 2

Asked: Lab note: which band did C82U A120G A145U C150U C169A land in?
Given back: range 3

Asked: Lab note: which band did C82U A111C A120C C169A U176G land in?
Given back: range 1

Asked: Lab note: which band did C82U A111C A145C C150U C169U U176G land in?
Given back: range 2

Asked: Lab note: which band did C82G A111U A145C C169A U176G land in?
Given back: range 1

Asked: Lab note: which band did C82A A111C A120U C150U C169G U176C land in?
Given back: range 1

Asked: Lab note: which band did A111C A145C C150U U176C land in?
Given back: range 3

Asked: Lab note: which band did A120U A145U C150A C169G U176G land in?
Given back: range 1

Asked: Lab note: which band did A111U A145G C169U U176G land in?
Given back: range 1

Asked: Lab note: which band did A120U A145G C150U C169U U176G land in?
Given back: range 2

Asked: Lab note: which band did C82G A120C land in?
Given back: range 3

Asked: Lab note: which band did C82U A111C A120U A145C C150U C169G U176C land in?
Given back: range 1

Asked: Lab note: which band did C82A A120U A145G C150G C169G land in?
Given back: range 2

Asked: Lab note: which band did C82G A145C C169A land in?
Given back: range 2

Asked: Lab note: which band did C82A A111C A120G A145U C150U C169U U176C land in?
Given back: range 3

Asked: Lab note: which band did C82G A111G A120C A145C C150U U176G land in?
Given back: range 2

Asked: Lab note: which band did C82A A111U A145G C169U U176G land in?
Given back: range 2

Asked: Lab note: which band did C82A A145C C169U land in?
Given back: range 3

Asked: Lab note: which band did C82A A145C C150A C169G U176A land in?
Given back: range 3

Asked: Lab note: which band did A111G A120G A145U C150U C169A land in?
Given back: range 3

Entry source: the RNAGym collection of RNA variant scans (doi:10.1093/molbev/msab373)
